# Read-out: Monokine induced gamma interferon (MIG), CXCL9 (gene 4283)
# experimental protocol: BSK_hDFCGF_MIG: BioMAP Diversity Plus: hDFCGF Assay for Monokine induced gamma interferon (MIG) Biomarker Activity (AID 2283063)
# conditions: primary human foreskin fibroblasts; actives raise or lower the signal
# Experimental: BSK_hDFCGF is a cell-based, multiplexed-readout assay that uses foreskin fibroblast, a human skin primary cell, with measurements taken at 24 hours after chemical dosing in a 96-well plate.BSK_hDFCGF_MIG is an assay component measured in the BSK_hDFCGF assay. It measures MIG antibody related to regulation of gene expression using ELISA technology.Data from the assay component BSK_hDFCGF_MIG was analyzed into 1 assay endpoint. […]
Activity calls are given as the source filed them. The calls were made as follows: active = hit-call score of the fitted dose curve at least 0.9, where 1 is the maximum; inactive = score below 0.9.
Form entry, call: pick from active, inactive

Query string: Dear colleague, could you share the recorded outcome for Cc1ccc(C(C)C)cc1 when you have a moment?
Result string: inactive

Query string: Dear colleague, could you share the recorded outcome for CCCCCCCCOc1ccc(C(=O)c2ccccc2)c(O)c1 when you have a moment?
Result string: inactive

Query string: Dear colleague, could you share the recorded outcome for c1ccc2n[nH]nc2c1 when you have a moment?
Result string: inactive

Query string: Dear colleague, could you share the recorded outcome for CN1C(=O)N(c2ccccc2Br)Cc2cnc(Nc3ccc4c(c3)OCC(CO)O4)nc21 (stereo unspecified) when you have a moment?
Result string: active

Query string: Dear colleague, could you share the recorded outcome for CC(=O)N1CCN(c2ccc(OC[C@H]3CO[C@](Cn4ccnc4)(c4ccc(Cl)cc4Cl)O3)cc2)CC1 when you have a moment?
Result string: active

Query string: Dear colleague, could you share the recorded outcome for NCc1cccc(C2CCN(C(=O)c3ccc(C#Cc4ccccc4F)o3)CC2)c1 when you have a moment?
Result string: active

Query string: Dear colleague, could you share the recorded outcome for CC[C@@H]1C[C@H](N(Cc2cc(C(F)(F)F)cc(C(F)(F)F)c2)C(C)=O)c2cc(C(F)(F)F)ccc2N1C(=O)OC(C)C when you have a moment?
Result string: inactive

Query string: Dear colleague, could you share the recorded outcome for OC12N=C(c3ccccc3)SC1Cc1cc(Cl)ccc12 (stereo unspecified) when you have a moment?
Result string: inactive

Query string: Dear colleague, could you share the recorded outcome for Clc1cc(Cl)c2c(c1)N=C1CCCCCN1C2 when you have a moment?
Result string: inactive

Query string: Dear colleague, could you share the recorded outcome for O=C(O)c1ccccc1C(=O)OCc1ccccc1 when you have a moment?
Result string: inactive

Query string: Dear colleague, could you share the recorded outcome for CN(C)C(=O)C1(N2CCCCC2)CCN(CC[C@@]2(c3ccc(Cl)c(Cl)c3)CN(C(=O)c3ccccc3)CCO2)CC1 when you have a moment?
Result string: active

====

# experimental protocol: BSK_CASM3C_SRB: Viability Assessment in the BioMAP Diversity Plus: CASM3C Assay (AID 2283050);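 also: total protein by SRB staining as cytotoxicity measure in parallel cultures; cells exposed to compound for 24 h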
# conditions: primary human coronary artery smooth muscle cells
Calls of active or inactive are those of the source. How the source made its calls: active means hit-call score of the fitted dose curve at least 0.9, where 1 is the maximum; inactive means score below 0.9.
test readout: AC50

Some molecules with recorded AC50:
| molecule | assay result |
| --- | --- |
| CCCCCCCCN(C)CCCCCCCC | inactive |
| CCCCCCCCCC(=O)O | inactive |
| O=C1c2ccccc2C(=O)N1CCc1noc(-c2ccc(CN3CCCCCC3)s2)n1 | inactive |
| Cc1cn([C@H]2C[C@H](N=[N+]=[N-])[C@@H](CO)O2)c(=O)[nH]c1=O | inactive |
| O=C(Nc1ccc(Cl)cc1)Nc1ccc(Cl)c(Cl)c1 | 10.6 µM (active) |
| O=C(O)c1ccccc1-n1cc(C(=O)O)c(=O)c2cc(Nc3c(F)cc(F)cc3Cl)c(Cl)cc21 | inactive |
| CCOC(=O)O[C@H](C)OC(=O)c1ccc2c(c1)cc(C(=O)NC1CCN(C(C)C)CC1)n2Cc1cc(-c2ccc(Cl)s2)on1 | 6.15 µM (active) |
| CN(C)c1ccc(C(=C2C=CC(=[N+](C)C)C=C2)c2ccc(N(C)C)cc2)cc1 | 7.66 µM (active) |
| CCCCCCCCCCCCO | inactive |
| Clc1cc(Cl)c2c(c1)N=C1CCCCCN1C2 | inactive |

CC(C)(C)c1csc(-c2cc3cc(OCc4ccccc4CC(=O)O)ccc3o2)n1 yielded AC50 of 31 µM (active)

O=c1c(-c2ccc(O)cc2)coc2cc(O)cc(O)c12 yielded AC50 of inactive

Cc1ccc2oc(CN(Cc3ccccc3)C(=O)Nc3c(F)cc(F)cc3F)c(-c3ccc(Cl)cc3)c2c1 yielded AC50 of inactive

Cc1c2ccccc2c(C)c2c1ccc1ccccc12 yielded AC50 of 20 µM (active)

CC(O)CC(C)(C)O (stereo not given) yielded AC50 of inactive

Oc1ccc2ccccc2c1 yielded AC50 of inactive
